test_target: particulate guanylyl cyclase receptor A (pGC-A) (Homo sapiens)
Construct: expressed in transfected cells; host or cells: HEK293
test_name: cGMP production by HTRF in HEK293 cells overexpressing pGC-A, with ANP
Type: cell-based
run_conditions: HEK293, HEK293 cells overexpressing pGC-A; cGMP normalized to maximal amount produced by an EC80 concentration of ANP; read-out: Max efficacy
readout_type: Emax (%)

Examples from the recorded data:
Fill in: Emax of CCC(C)N1CC(N2CCCC(C(=O)Nc3nc4c(Cl)cc(F)cc4s3)C2)C1 (stereo not drawn) is ___
80

Value lookup for Emax; key = N[C@H]1CCCC(C(=O)Nc2nc3c(F)cc(F)cc3s2)C1 (stereo partly drawn) [210C]
92

What Emax value was documented for this compound, CCN(CC)CCN1CCCC(C(=O)Nc2nc3c(F)cc(F)cc3s2)C1 (stereo not drawn) ?
86

Can you share its Emax? I mean this compound: CN1CCCCC1CN1CCCC(C(=O)Nc2nc3c(F)cc(F)cc3s2)C1 (stereo not drawn)
94

If you can, please state the reported Emax value of CN(C)CCN1CCCC1C(=O)Nc1nc2c(F)cc(F)cc2s1 (stereo not drawn) .
92

(A) CN(C)CCN1CCCC(C(=O)Nc2nc3c(Cl)cccc3s2)C1 (stereo not drawn)
(B) O=C(Nc1nc2c(Cl)cc(F)cc2s1)C1CCCN(c2ccnnc2)C1 (stereo not drawn)
Hello, I am sorting some records. Could you say if A or B has the smaller Emax value? Kindly state the label of the option you pick.
B

====

test_target: particulate guanylyl cyclase receptor A (pGC-A) (Homo sapiens, UniProt P16066)
Sequence (P16066 33-1061): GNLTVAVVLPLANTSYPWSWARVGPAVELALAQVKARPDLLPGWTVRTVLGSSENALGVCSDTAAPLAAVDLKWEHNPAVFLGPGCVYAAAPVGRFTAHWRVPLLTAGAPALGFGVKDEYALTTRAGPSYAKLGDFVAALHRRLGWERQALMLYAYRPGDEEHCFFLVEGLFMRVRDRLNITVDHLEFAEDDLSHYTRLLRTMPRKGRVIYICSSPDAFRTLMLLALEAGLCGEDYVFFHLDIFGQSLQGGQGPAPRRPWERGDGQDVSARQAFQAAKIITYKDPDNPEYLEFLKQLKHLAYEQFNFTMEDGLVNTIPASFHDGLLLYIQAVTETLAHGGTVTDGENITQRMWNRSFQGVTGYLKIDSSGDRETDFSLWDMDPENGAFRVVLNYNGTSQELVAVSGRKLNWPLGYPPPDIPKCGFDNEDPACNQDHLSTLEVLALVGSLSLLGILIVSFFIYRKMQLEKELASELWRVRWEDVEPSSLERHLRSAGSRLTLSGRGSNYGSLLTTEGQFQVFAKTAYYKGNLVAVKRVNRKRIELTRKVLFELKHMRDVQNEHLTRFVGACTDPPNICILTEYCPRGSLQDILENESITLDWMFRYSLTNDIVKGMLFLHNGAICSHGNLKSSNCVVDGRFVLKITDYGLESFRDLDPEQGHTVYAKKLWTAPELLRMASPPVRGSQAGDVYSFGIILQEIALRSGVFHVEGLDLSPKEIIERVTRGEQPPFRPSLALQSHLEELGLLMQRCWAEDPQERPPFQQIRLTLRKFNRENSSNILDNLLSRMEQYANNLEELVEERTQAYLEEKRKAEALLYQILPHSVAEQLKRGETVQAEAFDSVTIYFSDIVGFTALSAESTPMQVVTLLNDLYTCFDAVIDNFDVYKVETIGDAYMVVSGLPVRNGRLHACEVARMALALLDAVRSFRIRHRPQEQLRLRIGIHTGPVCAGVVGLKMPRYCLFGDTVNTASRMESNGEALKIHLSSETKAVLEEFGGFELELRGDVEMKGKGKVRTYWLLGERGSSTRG
Sequence (P01160 124-151 partner limits assumed): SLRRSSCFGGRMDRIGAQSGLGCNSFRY
test_name: cGMP production by HTRF in HEK293 cells overexpressing pGC-A, with ANP
run_conditions: HEK293 cells overexpressing pGC-A; test compound plus EC20 concentration of ANP; cGMP by HTRF
pEC50: −log10 of the molar value.
readout_type: pEC50

Would you please look over these solved cases?
Fill in the blank: the reported pEC50 of CN1CC(N2CCCC(C(=O)Nc3nc4c(Cl)cc(F)cc4s3)C2)C1 (stereo not drawn) is ____.
6.55

// pEC50 lookup, key: CN(C)CC(=O)N1CCCC(C(=O)Nc2nc3c(F)cc(F)cc3s2)C1 (stereo not drawn)
6.15

pEC50 for O=C(Nc1nc2c(F)cc(F)cc2s1)C1CCCN(CCn2ccnc2)C1 (stereo not drawn) ?
6.05

Sample CN1CCC(N2CCCC(C(=O)Nc3nc4c(Br)cccc4s3)C2)C1 (stereo not drawn) — what was its pEC50?
6.60

(I) O=C(Nc1nc2c(Cl)cc(F)cc2s1)C1CCCN(c2ccncc2)C1 (stereo not drawn)
(II) O=C(Nc1nc2c(F)cc(F)cc2s1)C1CCCN(CCN2CCOC2=O)C1 (stereo not drawn)
Lab note: check whether I or II shows the higher recorded pEC50. Refer to your chosen item by its label in the answer.
I

(P) CN(C)CCN1CC2(C(=O)Nc3nc4c(Cl)cc(F)cc4s3)CCC1CC2
(Q) CN(C)c1ccc(N2CCCC(C(=O)Nc3nc4c(F)cc(F)cc4s3)C2)cc1 (stereo not drawn)
(R) Nc1cc(N2CCCC(C(=O)Nc3nc4c(F)cc(F)cc4s3)C2)ccn1 (stereo not drawn)
(S) CN(C)CCN1CCCC(C(=O)Nc2nc3cccc(F)c3s2)C1 (stereo not drawn)
Write the entries in order, lowest recorded pEC50 first. Please write the labels in the order that was asked for.
S, Q, P, R
(S: 5.37, Q: 5.72, P: 5.99, R: 6.22)

(A) NCCN1CCCC(C(=O)Nc2nc3c(F)cc(F)cc3s2)C1 (stereo not drawn)
(B) COC1CNCC(C(=O)Nc2nc3c(F)cc(F)cc3s2)C1 (stereo not drawn)
(C) CCC(C)N1CC(N2CCCC(C(=O)Nc3nc4c(Cl)cc(F)cc4s3)C2)C1 (stereo not drawn)
(D) O=C(Nc1nc2c(F)cc(F)cc2s1)C1CCCN(c2ccnc(F)c2)C1 (stereo not drawn)
With regard to pEC50, arrange the entries in ascending order, please. Arrange the labels as the request states and list them.
D, B, A, C
